Origin of measurements: paper PMC4474874

tested on: BEAS-2B cells; test: Release of CXCL9, CXCL10 and CXCL11 from BEAS-2B cells (ELISA), inhibitors added 1h before stimulus; format: cell-based, human; settings: Homo sapiens, BEAS-2B, pre-treated 1h, IFNγ+TNFα (10ng/ml) 20h; read-out: IC50, release of CXCL11
measuredProperty: pIC50
One number for each entry, as −log10 of the molar value.

Q: Look up pIC50 with BEAS-2B cells for this compound: CCc1cc(O)ccc1-c1ccc2c(-c3nc4ccccc4[nH]3)n[nH]c2c1 [PF1367550]
Ans: 7.86

* * *

system: human primary airway epithelial cells; test: IL-6 release from IFNγ + TNFα-stimulated human primary airway epithelial cells; format: cell-based; conditions: Homo sapiens, Epithelial cell, IFNγ + TNFα
measuredProperty: IC50 (nM)
Numbers only, in nM.

Q: # query: IC50 of entry C[C@@H]1C[C@H]2[C@@H]3CCC4=CC(=O)C=C[C@]4(C)[C@@]3(F)[C@@H](O)C[C@]2(C)[C@@]1(O)C(=O)CO [dexamethasone]
Ans: 11
